measured-attribute: melting point

- Clc1ccc2c(C3=CCNCC3)c[nH]c2c1Cl: 252 to 254 °C
- Cc1ccn2c(CN(C)C)c(-c3ccc4sc(=O)n(C)c4c3)nc2c1: 167 to 168 °C
- O=c1[nH]c(=S)[nH]cc1Cc1cnc2ccccc2c1: 290 to 292 °C
- COc1cc(C(=O)c2ccc(C(F)(F)F)cc2)cc(N)c1OC: 95 to 96 °C
- COC1CC(C)(C)C(O)C(OC(=O)c2ccccc2)C=C1C (configuration not stated): 98 to 99 °C
- CN1CC(C)(CCCl)Oc2ncccc2C1=S (configuration not stated): 119 to 121 °C
- CC1CCc2c(C#N)c(F)cc3c(=O)c(C(=O)O)cn1c23 (configuration not stated): 300 °C
- CCC(C)(C)C1CC=C(C(=O)O)CC1 (configuration not stated): 123 to 125 °C
- CCCCCCCCCCCCCC/C=C\CC[C@@H]1OC(=O)C(O)=C1O: 64 to 66 °C
- O=C(NCCO)c1ccc(OCC2(O)CCN(Cc3ccccc3)CC2)cc1: 161 °C
- COC=C(C(=O)OC)c1ccccc1Oc1ncnc(F)c1Cl: 102 °C
- COc1ccccc1NC(=O)Oc1ccc2c(c1)N(Cc1ccccc1)CCC2: 125 °C
- COc1ccc(/C=C/c2nc3ccccc3c(=O)o2)cc1OC(C)=O: 187 to 190 °C
- C=CCn1c(NCC#N)nc(N2CCc3ccccc3CC2)c(C#N)c1=O: 198 to 203 °C
- COc1ccc2c(c1)c1c(n2C(=O)c2ccccc2)CCCC1C(=O)O (configuration not stated): 157 to 159 °C
- CCC1(CC)NC(=O)N(c2ccc(Cl)c(C(F)(F)F)c2)C1=O: 86 to 87 °C
- Oc1cccc2c1c1cccc(Cl)c1n2Cc1ccccc1: 163 to 166 °C
- Nc1n[nH]c2cc(C(F)(F)F)ccc12: 168 to 169 °C
- CNc1nc(C)c(-c2ccnc(Nc3ccc(Cl)c(CO)c3)n2)s1: 191 to 193 °C
- O=C(Cc1ccccc1)c1cc(Br)ccc1O: 83 to 86 °C
- CC(=O)Nc1ccc(C=C2CCc3ncc(C)cc3C2=O)cc1: 226 to 228 °C
- C=C1CC2C(CCC3(C)C2CCC3(OC(C)=O)C(C)=O)C2(C)CCC(=O)C=C12 (configuration not stated): 234 to 236 °C

Where do these numbers come from? They come from a melting point compilation (Tetko et al.; mined from patent text by program, amines drawn as free bases though some values may be those of a salt).
